biological target: T1, erbB2-SbdIV (recombinantly expressed subdomain IV of erbB2, GST fusion protein) (UniProt P04626 511-652); test: SPR (Biacore), peptide over immobilized erbB2-SbdIV
T1 construct: domain: subdomain IV; Expressed in E. coli BL-21 (DE3) and eluted from glutathione sepharose; no removal of GST is told; also called erbB2-Sbd W; not shown: glutathione S-transferase of the pGEX-5X-3 vector (N-terminal fusion partner)
Bridge positions count the residues as written; N and C are the ends. Ends that are not written are not given here.
measured endpoint: Kd (µM)
The reply should be a number in µM, with the unit left off.

Need Kd of YCPIWKFPDEECY (disulfide 2-12 (inferred)) [B2-S22-APE (derived from erbB2)] , thanks.
1.89

Values compiled from patent US20100120688A1.
